Tested on: MDA-MB-231
Test: Antiproliferative activity against human MDA-MB-231 cells assessed as inhibition of cell growth incubated for 48 hrs by MTT assay
Format: functional, cell-based
Details: MDA-MB-231, 48 h
# IC50 annotations
ENDPOINT_NAME: IC50 (µM)

COc1cc(-c2nccn3cc(-c4ccc5[nH]ccc5c4)nc23)cc(OC)c1OC
0.074
COc1cc(-c2nccn3cc(-c4ccc(F)cc4)nc23)cc(OC)c1OC
0.401
COc1cc(-c2nccn3cc(-c4ccc(C)cc4)nc23)cc(OC)c1OC
0.053
COc1cc(C(=O)c2cn3ccc(C)cc3n2)cc(OC)c1OC
9.28
COc1ccc(-c2cn3ccnc(-c4cc(OC)c(OC)c(OC)c4)c3n2)cc1N
0.111
COc1ccc(-c2cn3ccnc(-c4cc(OC)c(OC)c(OC)c4)c3n2)cc1
0.105
COc1cc(-c2nccn3cc(-c4ccccc4)nc23)cc(OC)c1OC
0.364
COc1cc(-c2nccn3cc(-c4ccc(N)cc4)nc23)cc(OC)c1OC
0.294
COc1cc2c(c(OC)c1OC)-c1ccc(OC)c(=O)cc1[C@@H](NC(C)=O)CC2
0.176
COc1cc(-c2nccn3cc(-c4ccc(Cl)cc4)nc23)cc(OC)c1OC
2.09
COc1cc(C(=O)c2cn3cc(Br)nc(Cl)c3n2)cc(OC)c1OC
6.77

Cited source for all entries: ChEMBL document CHEMBL5150065
